Where these numbers come from: patent US20250163138A1

Each entry below carries its recorded kon.
Molecular target: T1, cynomolgus monkey (cyno) complement protein C5 (cynomolgus monkey, UniProt A0A2K5U1T1 19-1676)
T1 construct: also called cC5; cyno C5
Assay: SPR (Biacore), pH 6.0
Field format: number, assumed M⁻¹ s⁻¹, no unit text.

CRL0483 (bispecific antibody, anti-C5 VHH / (G4S)3 / anti-albumin VHH fusion, purified by Protein A; also called CRL0483 (C5/HSA)) EVQLVESGGGLVQPGGSLRLSCAASGRTFSGILSPYAVGWFRQAPGKGLEFVSTITSGGSAIYTDSVKGRFTISRDNAKDSLYLQMNSLRAEDTAVYYCAVRTRRYGSNLGEVPQENEYGYWGQGTLVTVSSGGGGSGGGGSGGGGSEVQLLESGGGLVQPGGSLRLSCAASGFTFRSFGMSWVRQAPGKGPEWVSSISGSGSDTLYADSVKGRFTISRDNSKNTLYLQMNSLRPEDTAVYYCTIGGSLSRSSQGTLVTVSS yielded kon of 37100

The measured kon associated with CRL0499 (bispecific antibody, anti-albumin VHH / (G4S)3 / anti-C5 VHH fusion, purified by Protein A; also called CRL0499 (HSA/C5)) EVQLLESGGGLVQPGGSLRLSCAASGFTFRSFGMSWVRQAPGKGPEWVSSISGSGSDTLYADSVKGRFTISRDNSKNTLYLQMNSLRPEDTAVYYCTIGGSLSRSSQGTLVTVSSGGGGSGGGGSGGGGSEVQLVESGGGLVQPGGSLRLSCAASGRAHSDYAMAWFRQAPGQEREFVAGIGWSGGDTLYADSVRGRFTNSRDNSKNTLYLQMNSLRAEDTAVYYCAARQGQYIYSSMRSDSYDYWGQGTLVTVSS reads 1.92e+06

kon for CRL0500 (bispecific antibody, anti-albumin VHH / (G4S)3 / anti-C5 VHH fusion, purified by Protein A; also called CRL0500 (HSA/C5)) EVQLVESGGGLVKPGGSLRLSCAASGRPVSNYAAAWFRQAPGKEREFVSAINWQKTATYADSVKGRFTISRDNAKNSLYLQMNSLRAEDTAVYYCAAVFRVVAPKTQYDYDYWGQGTLVTVSSGGGGSGGGGSGGGGSEVQLVESGGGLVQPGGSLRLSCAASGRAHSDYAMAWFRQAPGQEREFVAGIGWSGGDTLYADSVRGRFTNSRDNSKNTLYLQMNSLRAEDTAVYYCAARQGQYIYSSMRSDSYDYWGQGTLVTVSS is 3.91e+06
